Quick reference for EC50 among some compounds
molecular target: TLR7 (Homo sapiens, UniProt Q9NYK1); construct: lymphocytes, monocytes and dendritic cells that express TLR7, TLR8 and TLR9; endogenous in cells; host or cells: human PBMCs from healthy donors; assay: Human PBMC cell-based assay, TLR7 agonist GS-986 stimulation, cytokine (IL-6 and IFNα) readout; conditions: human PBMCs, GS-986 400 nM, 6 hours; Table 26; read-out: TLR-7 EC50
Report only the number, with the unit nM understood.

The cases that follow already have their EC50 on record.
- COMPOUND: "Cc1cc(-c2[nH]c3cc(-c4ccc(N5CCC(NCCO)CC5)nc4)ccc3c2C)cc(C)n1"
  REPORTED PROPERTY: "EC50"
  UNIT OF MEASURE: "nM"
  NUMERIC RESULT: 17.9
- COMPOUND: "CC(=O)N1CCN(c2ccc(-c3ccc4c(C)c(-c5cc(C)nc(C)c5)[nH]c4c3)cn2)CC1"
  REPORTED PROPERTY: "EC50"
  UNIT OF MEASURE: "nM"
  NUMERIC RESULT: 224
- COMPOUND: "Cc1cc(-c2[nH]c3cc(-c4ccc(N5CCNC6(CC6)C5)nc4)ccc3c2C)cc(C)n1"
  REPORTED PROPERTY: "EC50"
  UNIT OF MEASURE: "nM"
  NUMERIC RESULT: 64.4

**Q:** Which value of EC50 has been reported for `Cc1cc(-c2[nH]c3cc(-c4cccc(C(=O)N5CCC(N)CC5)c4)ccc3c2C)cc(C)n1` in the records?
**A:** 226

**Q:** What do you have for `Cc1cc(-c2[nH]c3cc(-c4cccc(C(=O)N5CC[C@H](N)C5)c4)ccc3c2C)cc(C)n1` ?
**A:** 54.1

**Q:** What do you have for `Cc1cc(-c2[nH]c3cc(-c4cnn(CC5CCNCC5)c4)ccc3c2C)cc(C)n1` ?
**A:** 323

**Q:** What do you have for `CCc1c(-c2cc(C)c3ncnn3c2)[nH]c2cc(C3CCNCC3)ccc12` ?
**A:** 12

**Q:** What do you have for `Cc1cc(-c2[nH]c3cc(-c4ccc(N5CCNCC5)nc4)ccc3c2C)c2cccnc2n1` ?
**A:** 1.8

**Q:** What do you have for `Cc1cc(-c2[nH]c3cc(-c4cn(C5CCNCC5)nn4)ccc3c2C)cc(C)n1` ?
**A:** 92

====

Biological target: TLR7 (Homo sapiens)
Construct: lymphocytes, monocytes and dendritic cells that express TLR7, TLR8 and TLR9; endogenous in cells; host or cells: human PBMCs from healthy donors
Sequence (Q9NYK1 27-1049): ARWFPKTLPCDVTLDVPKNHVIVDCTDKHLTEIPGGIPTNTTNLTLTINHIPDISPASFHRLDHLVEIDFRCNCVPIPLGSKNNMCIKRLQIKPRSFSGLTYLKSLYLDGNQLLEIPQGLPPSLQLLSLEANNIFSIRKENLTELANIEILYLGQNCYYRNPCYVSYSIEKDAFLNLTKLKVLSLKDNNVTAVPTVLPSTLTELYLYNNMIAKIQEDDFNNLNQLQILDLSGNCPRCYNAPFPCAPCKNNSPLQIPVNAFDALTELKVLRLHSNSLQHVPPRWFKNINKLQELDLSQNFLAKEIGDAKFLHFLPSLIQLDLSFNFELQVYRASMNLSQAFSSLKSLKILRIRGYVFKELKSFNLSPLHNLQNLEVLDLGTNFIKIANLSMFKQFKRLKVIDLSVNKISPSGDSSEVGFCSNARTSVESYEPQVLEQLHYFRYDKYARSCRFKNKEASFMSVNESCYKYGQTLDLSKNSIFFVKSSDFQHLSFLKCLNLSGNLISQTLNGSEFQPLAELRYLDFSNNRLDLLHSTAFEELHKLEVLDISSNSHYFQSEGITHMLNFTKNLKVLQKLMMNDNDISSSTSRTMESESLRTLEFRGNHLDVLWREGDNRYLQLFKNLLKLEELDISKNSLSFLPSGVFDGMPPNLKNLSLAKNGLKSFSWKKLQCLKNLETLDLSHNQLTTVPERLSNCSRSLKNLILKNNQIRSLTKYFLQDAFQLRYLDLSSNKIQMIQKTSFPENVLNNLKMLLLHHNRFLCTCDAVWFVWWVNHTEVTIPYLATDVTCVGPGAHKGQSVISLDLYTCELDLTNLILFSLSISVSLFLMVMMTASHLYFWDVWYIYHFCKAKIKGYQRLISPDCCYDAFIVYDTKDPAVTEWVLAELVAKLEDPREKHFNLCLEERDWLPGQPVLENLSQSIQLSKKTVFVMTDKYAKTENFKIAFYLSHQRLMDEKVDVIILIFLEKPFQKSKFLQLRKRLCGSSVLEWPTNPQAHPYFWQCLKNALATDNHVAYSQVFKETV
Experiment: Human PBMC cell-based assay, TLR7 agonist GS-986 stimulation, cytokine (IL-6 and IFNα) readout
Conditions: human PBMCs, GS-986 400 nM, 6 hours; Table 26; read-out: TLR-7 EC50
Quick reference for pEC50 among some molecules
As a rule, pEC50 stands for the negative log10 of the concentration, concentration in M.

The cases that follow already have their pEC50 on record.
- MOLECULE: "CNCCN(C)c1ccc(-c2ccc3c(C)c(-c4cc(C)nc(C)c4)[nH]c3c2)cn1"
  pEC50: 7.62
- MOLECULE: "Cc1cc(-c2[nH]c3cc(-c4ccc(N5CCN(C(=O)[C@@H]6CC(F)(F)CN6)CC5)nc4)ccc3c2C)cc(C)n1"
  pEC50: 6.38
- MOLECULE: "Cc1cc(-c2[nH]c3cc(-c4ccc5c(c4)CNCC5)ccc3c2C)cc(C)n1"
  pEC50: 6.67

**Q:** Tell me reported pEC50 for `Cc1cc(-c2[nH]c3cc(-c4ccc(N5CCN(C(=O)C67CNC(C6)C7)CC5)nc4)ccc3c2C)cc(C)n1` , tested with TLR7 (Homo sapiens).
**A:** 7.52

**Q:** What do you have for `Cc1cc(-c2[nH]c3cc(-c4ccc5cccnc5c4)ccc3c2C)cc(C)n1` ?
**A:** 6.19

**Q:** What do you have for `Cc1cc(-c2[nH]c3cc(-c4ccc(NC5CCNCC5)nc4)ccc3c2C)cc(C)n1` ?
**A:** 8.08

**Q:** What do you have for `Cc1cc(-c2[nH]c3cc(-c4ccc5nc([C@@H]6N[C@H]7CC[C@@H]6C7)[nH]c5c4)ccc3c2C)cc(C)n1` ?
**A:** 8.35

**Q:** What do you have for `Cc1cc(-c2[nH]c3cc(-c4ccc(N5CCNCC5)nc4)ccc3c2C)nc(C)n1` ?
**A:** 6.84

**Q:** What do you have for `Cc1cc(-c2[nH]c3cc(-c4csc(N5CCNCC5)n4)ccc3c2C)cc(C)n1` ?
**A:** 6.92

**Q:** What do you have for `CNC(=O)CN1CCN(c2ccc(-c3ccc4c(C)c(-c5cc(C)nc(C)c5)[nH]c4c3)cn2)CC1` ?
**A:** 7.16

**Q:** What do you have for `Cc1cc(-c2[nH]c3cc(-c4ccc(N5CCNCC5)nc4)ccc3c2C)cc(N)n1` ?
**A:** 7.48

====

Biological target: TLR7 (Homo sapiens, UniProt Q9NYK1)
Construct: lymphocytes, monocytes and dendritic cells that express TLR7, TLR8 and TLR9; endogenous in cells; host or cells: human PBMCs from healthy donors
Sequence (Q9NYK1 27-1049): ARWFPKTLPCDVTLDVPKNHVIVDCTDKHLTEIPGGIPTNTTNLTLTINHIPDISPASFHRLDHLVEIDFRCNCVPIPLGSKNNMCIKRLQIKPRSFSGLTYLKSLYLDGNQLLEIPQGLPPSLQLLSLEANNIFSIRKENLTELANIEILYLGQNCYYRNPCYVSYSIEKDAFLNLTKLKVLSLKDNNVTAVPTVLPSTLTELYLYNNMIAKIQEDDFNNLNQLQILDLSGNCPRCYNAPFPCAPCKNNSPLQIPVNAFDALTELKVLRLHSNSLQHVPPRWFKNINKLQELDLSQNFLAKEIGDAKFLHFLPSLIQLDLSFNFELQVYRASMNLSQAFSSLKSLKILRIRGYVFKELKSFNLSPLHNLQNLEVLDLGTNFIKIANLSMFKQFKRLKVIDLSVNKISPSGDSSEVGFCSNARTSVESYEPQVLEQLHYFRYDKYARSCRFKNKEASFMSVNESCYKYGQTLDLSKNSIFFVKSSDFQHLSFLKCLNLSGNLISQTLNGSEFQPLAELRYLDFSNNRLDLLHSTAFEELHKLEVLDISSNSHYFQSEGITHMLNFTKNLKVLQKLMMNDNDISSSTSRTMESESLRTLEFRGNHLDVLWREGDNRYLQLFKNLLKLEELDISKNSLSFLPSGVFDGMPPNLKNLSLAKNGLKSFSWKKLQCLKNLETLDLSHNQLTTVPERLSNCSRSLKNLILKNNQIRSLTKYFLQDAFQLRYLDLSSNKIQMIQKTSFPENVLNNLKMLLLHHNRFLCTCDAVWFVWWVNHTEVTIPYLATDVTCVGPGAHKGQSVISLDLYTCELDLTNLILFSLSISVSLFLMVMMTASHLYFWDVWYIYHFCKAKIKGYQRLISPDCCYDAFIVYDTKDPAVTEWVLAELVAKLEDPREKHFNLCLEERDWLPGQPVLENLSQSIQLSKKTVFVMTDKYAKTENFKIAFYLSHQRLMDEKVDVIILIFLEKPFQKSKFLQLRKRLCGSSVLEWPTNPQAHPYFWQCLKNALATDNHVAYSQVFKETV
Assay: Human PBMC cell-based assay, TLR7 agonist GS-986 stimulation, cytokine (IL-6 and IFNα) readout
Details: human PBMCs, GS-986 400 nM, 6 hours; Table 26; read-out: TLR-7 EC50
Decision: EC50 beneath 200 nM gives Criterion met; EC50 meeting or exceeding 200 nM gives Criterion not met.

- SAMPLE SMILES: "Cc1cc(-c2[nH]c3cc(-c4ccc(N5CCNCC5)nc4)ccc3c2C2CC2)cc(C)n1"
  CLASSIFICATION: "Criterion met"
- SAMPLE SMILES: "Cc1cc(-c2[nH]c3cc(-c4ccc(N5CCNCC5)nc4C)ccc3c2C)cc(C)n1"
  CLASSIFICATION: "Criterion met"
- SAMPLE SMILES: "Cc1cc(-c2[nH]c3cc(-c4ccc(S(=O)(=O)C5CCNCC5)cc4)ccc3c2C)cc(C)n1"
  CLASSIFICATION: "Criterion met"
- SAMPLE SMILES: "CC(=O)c1c(-c2cc(C)nc(C)c2)[nH]c2cc(-c3ccc(N4CCNCC4)nc3)ccc12"
  CLASSIFICATION: "Criterion not met"
- SAMPLE SMILES: "Cc1cc(-c2[nH]c3cc(-c4cnc5c(c4)ncn5C)ccc3c2C)cc(C)n1"
  CLASSIFICATION: "Criterion met"

Next item in the queue.
**Q:** Take the molecule `Cc1c(-c2cc(C)c3ncnn3c2)[nH]c2cc(-c3nc4ccccc4n3C)ccc12` and say whether its EC50 is less than 200 nM.
**A:** Criterion not met
